Molecular target: Laminin 421/521
Assay: phage display, NGS count
Please respond with Criterion met when measured Count is strictly beneath 30, and with Criterion not met in all other cases.

Query :: Dear colleague, could you confirm whether Count of LGPSTQGAGQTR falls below 30? Thanks.
Result :: Criterion not met

Query :: Confirm or reject: Count of DSLYRGMHQPRI lies strictly below 30
Result :: Criterion met

Query :: # TODO verify Count < 30 strictly for this binder: WDLPTLRKTKQA
Result :: Criterion not met

Query :: Consider CLQKNHKFC . Does its Count lie strictly below 30?
Result :: Criterion met
